target-or-test-system: IKZF2 (Homo sapiens (Human), UniProt Q96SW2+Q9UKS7)
Sequence (Q9UKS7 whole entry): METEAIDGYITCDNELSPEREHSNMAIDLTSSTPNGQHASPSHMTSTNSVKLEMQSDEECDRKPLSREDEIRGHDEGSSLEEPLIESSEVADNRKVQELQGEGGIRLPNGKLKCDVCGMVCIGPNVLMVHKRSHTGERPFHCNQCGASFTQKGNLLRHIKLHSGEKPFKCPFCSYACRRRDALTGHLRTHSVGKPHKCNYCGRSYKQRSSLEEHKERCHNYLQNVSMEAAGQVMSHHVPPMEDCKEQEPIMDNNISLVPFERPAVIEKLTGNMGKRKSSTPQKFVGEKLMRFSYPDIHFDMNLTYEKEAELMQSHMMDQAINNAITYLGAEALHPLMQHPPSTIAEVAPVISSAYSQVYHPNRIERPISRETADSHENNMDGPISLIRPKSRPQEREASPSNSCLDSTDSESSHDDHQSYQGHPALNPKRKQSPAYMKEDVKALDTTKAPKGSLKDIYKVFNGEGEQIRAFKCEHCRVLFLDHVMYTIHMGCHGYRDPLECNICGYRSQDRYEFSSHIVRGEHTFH
Sequence (Q96SW2 whole entry): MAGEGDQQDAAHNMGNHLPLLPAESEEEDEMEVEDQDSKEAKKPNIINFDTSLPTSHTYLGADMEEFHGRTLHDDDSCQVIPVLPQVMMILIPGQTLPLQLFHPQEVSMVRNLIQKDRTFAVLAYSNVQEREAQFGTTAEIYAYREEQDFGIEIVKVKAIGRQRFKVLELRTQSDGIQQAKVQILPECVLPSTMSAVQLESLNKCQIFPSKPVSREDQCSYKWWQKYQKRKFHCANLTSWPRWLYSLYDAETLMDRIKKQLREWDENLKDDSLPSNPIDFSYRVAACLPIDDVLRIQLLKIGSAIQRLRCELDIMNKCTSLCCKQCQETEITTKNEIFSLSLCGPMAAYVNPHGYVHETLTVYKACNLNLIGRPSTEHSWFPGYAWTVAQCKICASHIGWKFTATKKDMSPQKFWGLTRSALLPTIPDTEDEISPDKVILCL
Sequence (Q16531 2-1140 partner): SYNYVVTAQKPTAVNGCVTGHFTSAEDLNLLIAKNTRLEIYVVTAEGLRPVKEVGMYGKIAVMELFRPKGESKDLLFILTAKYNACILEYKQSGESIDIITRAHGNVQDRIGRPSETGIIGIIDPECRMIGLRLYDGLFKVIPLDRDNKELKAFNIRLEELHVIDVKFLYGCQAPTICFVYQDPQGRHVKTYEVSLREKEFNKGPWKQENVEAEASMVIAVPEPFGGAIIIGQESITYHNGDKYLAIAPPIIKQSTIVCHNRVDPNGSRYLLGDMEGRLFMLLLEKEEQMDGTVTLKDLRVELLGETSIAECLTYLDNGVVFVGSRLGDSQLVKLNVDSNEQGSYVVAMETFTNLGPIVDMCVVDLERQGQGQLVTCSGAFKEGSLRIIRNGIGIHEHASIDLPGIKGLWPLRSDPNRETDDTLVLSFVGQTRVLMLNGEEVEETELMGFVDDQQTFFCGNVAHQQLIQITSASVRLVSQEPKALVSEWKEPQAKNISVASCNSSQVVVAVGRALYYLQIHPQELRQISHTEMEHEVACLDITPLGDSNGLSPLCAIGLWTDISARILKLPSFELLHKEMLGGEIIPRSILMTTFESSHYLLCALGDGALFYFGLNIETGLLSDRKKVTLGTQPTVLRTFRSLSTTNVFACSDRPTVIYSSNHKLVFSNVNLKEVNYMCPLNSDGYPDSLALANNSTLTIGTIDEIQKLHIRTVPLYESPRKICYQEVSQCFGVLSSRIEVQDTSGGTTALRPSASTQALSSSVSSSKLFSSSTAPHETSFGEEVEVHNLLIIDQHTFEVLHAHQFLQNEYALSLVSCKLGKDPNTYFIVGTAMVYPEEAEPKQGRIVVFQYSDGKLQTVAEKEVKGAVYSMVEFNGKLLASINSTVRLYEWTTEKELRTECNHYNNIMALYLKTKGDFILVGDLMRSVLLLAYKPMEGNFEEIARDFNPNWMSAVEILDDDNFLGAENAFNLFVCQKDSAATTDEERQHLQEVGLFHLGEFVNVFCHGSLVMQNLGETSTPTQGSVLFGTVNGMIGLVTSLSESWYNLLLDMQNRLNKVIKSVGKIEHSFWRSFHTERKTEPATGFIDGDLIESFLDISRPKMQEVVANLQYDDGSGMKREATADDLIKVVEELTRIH
test-protocol: In vitro IKZF2 HiBit Assay (HEK293T Flp-in-HiBiT cells)
Format: cell-based
test-parameters: HEK293T Flp-in-HiBiT cells, 6 hrs incubation; read-out: IKZF2 HiBit DC50

{"compound": "Cn1ccc2c(CN3CCC(O)C3)cc(-c3ccc4c(c3)CN(C3CCC(=O)NC3=O)C4=O)nc21 (centres unmarked) [Example 303]", "DC50": "1 to 10 nM"}
{"compound": "O=C1CCC(N2Cc3cc(-c4cc(CN5CCCC5)c5[nH]nc(C6CC6)c5n4)ccc3C2=O)C(=O)N1 (centres unmarked) [Example 202]", "DC50": "1 to 10 nM"}
{"compound": "Nc1n[nH]c2c(CN3CC(O)C3)cc(-c3ccc4c(c3)CN(C3CCC(=O)NC3=O)C4=O)nc12 (centres unmarked) [Example 213]", "DC50": "100 to 1000 nM"}
{"compound": "Cn1ccc2c(CN3CCc4ccccc4C3)cc(-c3ccc4c(c3)CN(C3CCC(=O)NC3=O)C4=O)nc21 (centres unmarked) [Example 65]", "DC50": "1 to 10 nM"}
{"compound": "O=C1CCC(N2Cc3cc(-c4cc(CN5CCCC5)c5ccn(-c6ccccc6)c5n4)ccc3C2=O)C(=O)N1 (centres unmarked) [Example 139]", "DC50": "1 to 10 nM"}
{"compound": "O=C1CC[C@H](N2Cc3cc(-c4cc(CN5CCCC5)c5ccn(-c6cn[nH]c6)c5n4)ccc3C2=O)C(=O)N1 [Example 271]", "DC50": "1 to 10 nM"}
{"compound": "O=C1CCC(N2Cc3cc(-c4ncc5cc(CN6CCCC6)ccn45)ccc3C2=O)C(=O)N1 (centres unmarked) [Example 52]", "DC50": "1 to 10 nM"}
{"compound": "Cn1ccc2c(CN3CCC(C#N)CC3)cc(-c3ccc4c(c3)CN(C3CCC(=O)NC3=O)C4=O)nc21 (centres unmarked) [Example 309]", "DC50": "1 to 10 nM"}
{"compound": "Cn1nc(N)c2nc(-c3ccc4c(c3)CN(C3CCC(=O)NC3=O)C4=O)cc(CN3CCCC3)c21 (centres unmarked) [Example 183]", "DC50": "1 to 10 nM"}
{"compound": "O=C1CCC(N2Cc3cc(-c4cc(CN5CCCC5)c5[nH]nc(NC6COC6)c5n4)ccc3C2=O)C(=O)N1 (centres unmarked) [Example 204]", "DC50": "1000 to 10000 nM"}
{"compound": "Cn1ccc2c(CN3CCC(F)CC3)cc(-c3ccc4c(c3)CN(C3CCC(=O)NC3=O)C4=O)nc21 (centres unmarked) [Example 301]", "DC50": "< 1 nM"}
{"compound": "CCn1ccc2c(CN3CCC3)cc(-c3ccc4c(c3)CN(C3CCC(=O)NC3=O)C4=O)nc21 (centres unmarked) [Example 98]", "DC50": "1 to 10 nM"}
{"compound": "O=C1CCC(N2Cc3cc(-c4cc(CN5CCC(F)C5)c5cc[nH]c5n4)ccc3C2=O)C(=O)N1 (centres unmarked) [Example 127]", "DC50": "1 to 10 nM"}
{"compound": "Cn1ncc2nc(-c3ccc4c(c3)CN(C3CCC(=O)NC3=O)C4=O)cc(CN3CCCC3)c21 (centres unmarked) [Example 310]", "DC50": "< 1 nM"}
{"compound": "Cn1ccc2c(CN3CCC(F)C3)cc(-c3ccc4c(c3)CN(C3CCC(=O)NC3=O)C4=O)nc21 (centres unmarked) [Example 304]", "DC50": "1 to 10 nM"}
{"compound": "CC(C)Oc1ccnc2c(CN3CCCC3)cc(-c3ccc4c(c3)CN(C3CCC(=O)NC3=O)C4=O)nc12 (centres unmarked) [Example 232]", "DC50": "1 to 10 nM"}
{"compound": "O=C1CCC(N2Cc3cc(-c4cc(CN5CCC(F)C5)c5ccn(C6CC6)c5n4)ccc3C2=O)C(=O)N1 (centres unmarked) [Example 141]", "DC50": "1 to 10 nM"}
{"compound": "O=C1CCC(N2Cc3cc(-c4cc(CN5CCC(F)CC5)c5cc[nH]c5n4)ccc3C2=O)C(=O)N1 (centres unmarked) [Example 116]", "DC50": "< 1 nM"}
{"compound": "Cc1cc(-c2ccc3c(c2)CN(C2CCC(=O)NC2=O)C3=O)nc2c1nc(CN1CCCC1)n2C1COC1 (centres unmarked) [Example 259]", "DC50": "> 10000 nM"}
{"compound": "CC(C)Nc1n[nH]c2c(CN3CC4(CCOCC4)C3)cc(-c3ccc4c(c3F)CN(C3CCC(=O)NC3=O)C4=O)nc12 (centres unmarked) [Example 289]", "DC50": "1 to 10 nM"}
{"compound": "O=C1CCC(N2Cc3cc(-c4cc(CN5CC(CO)C5)c5ccn(C6COC6)c5n4)ccc3C2=O)C(=O)N1 (centres unmarked) [Example 165]", "DC50": "10 to 100 nM"}
{"compound": "O=C1CCC(N2Cc3cc(-c4cc(CN5CCCC5)c5c(ccn5C5CC5)n4)ccc3C2=O)C(=O)N1 (centres unmarked) [Example 174]", "DC50": "1 to 10 nM"}
{"compound": "COC1CCN(Cc2cc(-c3ccc4c(c3)CN(C3CCC(=O)NC3=O)C4=O)nc3c2ccn3C2COC2)CC1 (centres unmarked) [Example 189]", "DC50": "1 to 10 nM"}
{"compound": "COc1n[nH]c2c(CN3CCCC3)cc(-c3ccc4c(c3)CN(C3CCC(=O)NC3=O)C4=O)nc12 (centres unmarked) [Example 235]", "DC50": "1 to 10 nM"}
{"compound": "CN(C)c1ccnc2c(CN3CCCC3)cc(-c3ccc4c(c3)CN(C3CCC(=O)NC3=O)C4=O)nc12 (centres unmarked) [Example 237]", "DC50": "10 to 100 nM"}
{"compound": "Nc1n[nH]c2c(CN3CC4COCC(C4)C3)cc(-c3ccc4c(c3)CN(C3CCC(=O)NC3=O)C4=O)nc12 (centres unmarked) [Example 215]", "DC50": "10 to 100 nM"}
{"compound": "Cn1ccc2c(CN3CCCC3)cc(-c3ccc4c(c3F)CN(C3CCC(=O)NC3=O)C4=O)nc21 (centres unmarked) [Example 75]", "DC50": "< 1 nM"}
{"compound": "CC(C)Nc1n[nH]c2c(CN3CCCC3)cc(-c3ccc4c(c3)CN(C3(C)CCC(=O)NC3=O)C4=O)nc12 (centres unmarked) [Example 294]", "DC50": "1000 to 10000 nM"}
{"compound": "O=C1CCC(N2Cc3cc(-c4cc(CN5CCCC5)c5cccc(C6CCC6)c5n4)ccc3C2=O)C(=O)N1 (centres unmarked) [Example 241]", "DC50": "10 to 100 nM"}
